Reported half-life values follow for various molecules
# assay.comment: Half life in ICR mouse at 10 mg/kg, po by LC-MS/MS analysis
# Assay type: ADME, organism-based
# test.context: in vivo
readout.type: half-life (h)

INSERT INTO results (smiles_repr, readout_type, recorded_result) VALUES
  ('CCCN(CCCCNC(=O)c1ccc(-c2ccccn2)cc1)C[C@@H]1C[C@H]1c1cc(F)ccc1OC.Cl', 'half-life', 2.64),
  ('CCCN(CCCCNC(=O)c1cc2ccccc2[nH]1)C[C@@H]1C[C@H]1c1cccc(Cl)c1Cl.Cl', 'half-life', 4.11),
  ('CCCN(CCCCNC(=O)c1ccc2ccccc2c1)C[C@@H]1C[C@H]1c1cccc(Cl)c1Cl.Cl', 'half-life', 2.08),
  ('CCCN(CCCCNC(=O)c1ccc(-c2ccccn2)cc1)C[C@@H]1C[C@H]1c1cccc(Cl)c1Cl.Cl', 'half-life', 2.12);

====

# tgt: D(1B) dopamine receptor (Homo sapiens, UniProt P21918)
# Sequence (P21918 whole entry): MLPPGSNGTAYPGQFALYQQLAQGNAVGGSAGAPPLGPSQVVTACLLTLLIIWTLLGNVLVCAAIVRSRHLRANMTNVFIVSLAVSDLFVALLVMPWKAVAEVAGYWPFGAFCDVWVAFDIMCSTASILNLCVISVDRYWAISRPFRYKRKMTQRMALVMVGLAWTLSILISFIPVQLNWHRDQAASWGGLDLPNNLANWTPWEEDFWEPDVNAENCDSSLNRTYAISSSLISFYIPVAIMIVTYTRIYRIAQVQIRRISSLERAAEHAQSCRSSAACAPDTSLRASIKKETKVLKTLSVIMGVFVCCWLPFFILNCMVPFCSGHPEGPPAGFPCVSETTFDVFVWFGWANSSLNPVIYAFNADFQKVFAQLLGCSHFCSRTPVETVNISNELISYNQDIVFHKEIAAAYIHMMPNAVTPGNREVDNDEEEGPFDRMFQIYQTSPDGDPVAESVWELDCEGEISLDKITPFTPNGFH
# assay.comment: Displacement of [3H]-SCH23390 from recombinant human D5 receptor transiently expressed in HEKT cell membranes measured after 90 mins by microbeta scintillation counting method
pKi: −log10 of the molar value.
Reported pKi values follow for various compounds
readout.type: pKi

INSERT INTO measurements (compound, recorded_result) VALUES
  ('CCCN(CCCCNC(=O)c1ccc(-c2ccccn2)cc1)CC1CC1c1cc(Cl)ccc1OC (centres undefined)', '< 5.30'),
  ('CCCN(CCCCNC(=O)c1ccc(-c2ccccn2)cc1)C[C@@H]1C[C@H]1c1cccc(Cl)c1Cl.Cl', '< 5.30'),
  ('CCCN(CCCCNC(=O)c1ccc(-c2ccccn2)cc1)CC1CC1c1cccc(F)c1 (centres undefined)', '< 5.30'),
  ('CCCN(CCCCNC(=O)c1ccc(-c2ccccn2)cc1)CC1CC1c1cccc(Cl)c1Cl (racemic)', '< 5.30'),
  ('COc1ccc(F)cc1C1CC1CN(CCCSc1nnc(-c2ccccc2)n1C)C(C)C (centres undefined)', '< 5.30'),
  ('CCN(CCCCNC(=O)c1ccc2ccccc2c1)CC1CC1c1cc(F)ccc1OC (centres undefined)', 5.76),
  ('COc1ccc(Cl)cc1C1CC1CN(CCCSc1nnc(-c2ccccc2)n1C)CC1CC1 (centres undefined)', '< 5.30'),
  ('COc1ccc(F)cc1C1CC1CNCCCSc1nnc(-c2ccccc2)n1C (centres undefined)', 6.03),
  ('CCN(CCCCNC(=O)c1cc2ccccc2[nH]1)CC1CC1c1cc(F)ccc1OC (centres undefined)', '< 5.30');

====

# tgt: D(1A) dopamine receptor (Homo sapiens, UniProt P21728)
# Sequence (P21728 whole entry): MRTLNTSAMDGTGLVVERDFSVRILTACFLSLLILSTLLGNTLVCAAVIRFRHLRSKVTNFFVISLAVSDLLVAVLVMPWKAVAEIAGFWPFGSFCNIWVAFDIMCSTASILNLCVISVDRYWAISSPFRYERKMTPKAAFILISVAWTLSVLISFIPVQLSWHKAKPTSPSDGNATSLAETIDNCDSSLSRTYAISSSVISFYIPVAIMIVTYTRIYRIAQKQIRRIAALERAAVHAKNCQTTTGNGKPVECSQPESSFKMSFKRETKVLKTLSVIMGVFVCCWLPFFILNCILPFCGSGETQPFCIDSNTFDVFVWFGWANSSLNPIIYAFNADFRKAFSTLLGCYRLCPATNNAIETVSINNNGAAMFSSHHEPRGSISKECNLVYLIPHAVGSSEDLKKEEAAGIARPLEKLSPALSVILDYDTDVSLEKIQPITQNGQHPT
# assay.comment: Displacement of [3H]-SCH23390 from recombinant human D1 receptor transiently expressed in HEKT cell membranes measured after 90 mins by microbeta scintillation counting method
readout.type: Ki (nM)

INSERT INTO results (compound, readout_type, unit_tag, recorded_result) VALUES
  ('CCCN(CCCCNC(=O)c1cc2ccccc2[nH]1)CC1CC1c1cccc(Cl)c1Cl (racemic)', 'Ki', 'nM', 891),
  ('CCOc1ccc(F)cc1C1CC1CN(CC)CCCSc1nnc(-c2ccccc2)n1C (stereo not given)', 'Ki', 'nM', 1150),
  ('COc1ccc(F)cc1C1CC1CN(C)CCCSc1nnc(-c2ccccc2)n1C (stereo not given)', 'Ki', 'nM', 794),
  ('CCOc1ccc(F)cc1C1CC1CNCCCSc1nnc(-c2ccccc2)n1C (stereo not given)', 'Ki', 'nM', 295),
  ('CCCN(CCCCNC(=O)c1cc2ccccc2[nH]1)C[C@H]1C[C@@H]1c1cccc(Cl)c1Cl.Cl', 'Ki', 'nM', 1120),
  ('CCCN(CCCCNC(=O)c1ccc2ccccc2c1)CC1CC1c1cc(F)ccc1OC (stereo not given)', 'Ki', 'nM', 967),
  ('CCCN(CCCCNC(=O)c1cc2ccccc2[nH]1)CC1CC1c1cccc(F)c1 (stereo not given)', 'Ki', 'nM', 1100),
  ('CCCN(CCCCNC(=O)c1ccc(-c2ccccn2)cc1)CC1CC1c1cccc(Cl)c1Cl (racemic)', 'Ki', 'nM', 1650),
  ('CCCN(CCCCNC(=O)c1ccc(-c2ccccn2)cc1)CC1CC1c1ccc(Cl)cc1 (stereo not given)', 'Ki', 'nM', 1310),
  ('CCCN(CCCCNC(=O)c1cc2ccccc2[nH]1)CC1CC1c1cc(Cl)ccc1OC (stereo not given)', 'Ki', 'nM', 818);
